# credit: patent EP4574175A1

Test: in vitro
Details: dog, microsomes
Readout: half-life at 1 µM (min)
Numbers only; they are read as min.

compound O=c1ccc2ccc(O)cc2o1 [7-hydroxycoumarin] , half-life at 1 µM observed: 1.68

====

Assay: Hepatic microsomal metabolic stability
Conditions: monkey, microsomes, The predicted intrinsic hepatic clearance Cl int
Readout: CLint scaled at 1 µM (mL/min/kg)
State the answer as a number, implicitly in mL/min/kg.

Consider Cc1c(-c2ccc(N3CCc4cccc(C(=O)Nc5nc6ccccc6s5)c4C3)nc2C(=O)OCc2ccc(O[C@@H]3O[C@H](CO)[C@H](O)[C@H](O)[C@H]3O)c([N+](=O)[O-])c2)cnn1CC12CC3CC(CC(C3)C1)C2 [A13bGa1] . Its measured CLint scaled at 1 µM is 30.2

====

Assay: Hepatic microsomal metabolic stability
Conditions: rat, microsomes
Readout: CLint scaled at 1 µM (mL/min/kg)
Reply numerically in mL/min/kg, unit not repeated.

Looking up Cc1c(-c2ccc(N3CCc4cccc(C(=O)Nc5nc6ccccc6s5)c4C3)nc2C(=O)OCc2ccc(O[C@@H]3O[C@H](CO)[C@H](O)[C@H](O)[C@H]3O)c([N+](=O)[O-])c2)cnn1CC12CC3CC(CC(C3)C1)C2 [A13bGa1] , I see its CLint scaled at 1 µM listed as 18.7
